Entries annotated with measured pEC50
- Test system: ROCK1/2 in A7r5 cells (pMLC2 levels)
- Protocol Description: Inhibition of ROCK1/2 in A7r5 cells, cell-based ELISA of phospho-myosin light chain (pMLC2, Thr18/Ser19)
- Condition Notes: Rattus norvegicus, 1.5 h, treated with test compounds for 90 minutes, read-out: pMLC2 (cellular EC50)
pEC50: −log10 of the molar value.

Examples with their reported pEC50 follow.
> print(dat)
                                     smiles                           system.name  observed.result
1  Nc1cc(-c2ccc3c(=O)n(Cc4cccc(C(=O)NCCc5ccccn5)c4)ccc3c2)ccn1  ROCK1/2 in A7r5 cells (pMLC2 levels)           > 7.00
2  CNC(=O)c1cccc(Cn2ccc3cc(-c4cn[nH]c4C(F)(F)F)ncc3c2=O)c1  ROCK1/2 in A7r5 cells (pMLC2 levels)     6.30 to 7.00
3  Cc1nocc1-c1ccc2c(=O)n(Cc3cccc(C(=O)NCC4CCN(CC(F)F)CC4)c3)ccc2c1  ROCK1/2 in A7r5 cells (pMLC2 levels)           > 7.00
4  Cc1nocc1-c1ccc2c(=O)n(Cc3cccc(C(=O)N[C@H]4CC[C@H](O)CC4)c3)ccc2c1  ROCK1/2 in A7r5 cells (pMLC2 levels)     6.30 to 7.00
5  CNC(=O)c1cccc(Cn2ccc3cc(-c4conc4C)ccc3c2=O)c1  ROCK1/2 in A7r5 cells (pMLC2 levels)     6.00 to 6.30

Please provide the recorded pEC50 for `COc1cccc(Cn2ccc3cc(-c4ccncc4)ccc3c2=O)c1` , tested on ROCK1/2 in A7r5 cells (pMLC2 levels).
> 7.00

Please provide the recorded pEC50 for `Cc1nocc1-c1ccc2c(=O)n(Cc3cccc(C(=O)NC4CCOCC4)c3)ccc2c1` , tested on ROCK1/2 in A7r5 cells (pMLC2 levels).
6.30 to 7.00

Please provide the recorded pEC50 for `Cn1nccc1-c1ccc2c(=O)n(Cc3cccc(C(=O)NC4CCN(CC(F)(F)F)CC4)c3)ccc2c1` , tested on ROCK1/2 in A7r5 cells (pMLC2 levels).
6.30 to 7.00

----------
Entries annotated with measured pIC50
- System Name: Recombinant ROCK2 (amino acids 5-554) (Homo sapiens)
- Construct: ROCK2 (amino acids 5-554); by word order, ROCK2 from SignalChem
- Protocol Description: ROCK inhibition assay, LANCE Ultra TR-FRET kinase assay (ROCK2)
- Condition Notes: 4 μM ATP, 50 nM ULight-CREBtide substrate
pIC50: −log10 of the molar value.

> print(dat)
                                   compound  observed.result
1  CNC(=O)c1cccc(Cn2ccc3cc(-c4conc4C)ccc3c2=O)c1F     7.00 to 8.00
2  Cc1nocc1-c1ccc2c(=O)n(Cc3cccc(C(=O)NC4CCOCC4)c3)ccc2c1           > 8.00
3  Cc1nocc1-c1ccc2c(=O)n(Cc3cc(F)cc(C(=O)NCC4COC4)c3)ccc2c1     7.00 to 8.00
4  COc1cccc(C(CO)n2cnc3cc(-c4cn[nH]c4C(F)(F)F)ccc3c2=O)c1 (centres unmarked)     7.00 to 8.00
5  Cc1n[nH]cc1-c1ccc2c(=O)n(Cc3cccc(C(=O)NCc4cccc(NS(C)(=O)=O)c4)c3)ccc2c1     6.30 to 7.00
6  CNC(=O)c1cccc([C@H](C)n2cnc3cc(-c4cn[nH]c4Cl)ccc3c2=O)c1     7.00 to 8.00
7  Cn1ccc(NC(=O)c2cccc(Cn3ccc4cc(-c5cn[nH]c5C(F)(F)F)ccc4c3=O)c2)n1           > 8.00

Next, consider the following compound.
Suppose we examine the compound `CNC(=O)c1cccc(Cn2cnc3cc(-c4conc4C)ccc3c2=O)c1` ; what pIC50 value has been reported?
> 8.00

----------
- System Name: Recombinant ROCK2 (amino acids 5-554) (Homo sapiens)
- Construct: ROCK2 (amino acids 5-554); by word order, ROCK2 from SignalChem
- Protocol Description: ROCK inhibition assay, LANCE Ultra TR-FRET kinase assay (ROCK2)
- Type: biochemical
- Condition Notes: 4 μM ATP, 50 nM ULight-CREBtide substrate
Entries annotated with measured IC50

> print(dat)
                                   compound  observed.result
1  Cn1nccc1-c1cc2ccn(Cc3cc(F)cc(C(=O)NCC4COC4)c3)c(=O)c2cn1   0.01 to 0.1 µM
2  CNC(=O)c1cccc(Cn2ccc3cc(-c4cnn(C)c4)ccc3c2=O)c1         > 0.5 µM
3  C[C@H](c1cccc(C(=O)NCc2ccc(F)nc2)c1)n1cnc2cc(-c3cn[nH]c3N)ccc2c1=O        < 0.01 µM
4  Cc1nocc1-c1cc2ccn(Cc3cc(F)cc(C(=O)NCC4CCOCC4)c3)c(=O)c2cn1        < 0.01 µM
5  CN1CCC(NC(=O)c2cc(F)cc(Cn3ccc4cc(-c5c[nH]nc5C(F)(F)F)ncc4c3=O)c2)CC1        < 0.01 µM

Next, consider the following compound.
Suppose we examine the compound `NS(=O)(=O)c1ccc(NC(=O)c2cccc(Cn3ccc4cc(-c5c[nH]nc5C(F)(F)F)ccc4c3=O)c2)cc1` ; what IC50 value has been reported?
0.01 to 0.1 µM

----------
- System Name: Recombinant ROCK2 (amino acids 5-554) (Homo sapiens, UniProt O75116)
- Construct: ROCK2 (amino acids 5-554); by word order, ROCK2 from SignalChem
- Sequence (O75116 5-554): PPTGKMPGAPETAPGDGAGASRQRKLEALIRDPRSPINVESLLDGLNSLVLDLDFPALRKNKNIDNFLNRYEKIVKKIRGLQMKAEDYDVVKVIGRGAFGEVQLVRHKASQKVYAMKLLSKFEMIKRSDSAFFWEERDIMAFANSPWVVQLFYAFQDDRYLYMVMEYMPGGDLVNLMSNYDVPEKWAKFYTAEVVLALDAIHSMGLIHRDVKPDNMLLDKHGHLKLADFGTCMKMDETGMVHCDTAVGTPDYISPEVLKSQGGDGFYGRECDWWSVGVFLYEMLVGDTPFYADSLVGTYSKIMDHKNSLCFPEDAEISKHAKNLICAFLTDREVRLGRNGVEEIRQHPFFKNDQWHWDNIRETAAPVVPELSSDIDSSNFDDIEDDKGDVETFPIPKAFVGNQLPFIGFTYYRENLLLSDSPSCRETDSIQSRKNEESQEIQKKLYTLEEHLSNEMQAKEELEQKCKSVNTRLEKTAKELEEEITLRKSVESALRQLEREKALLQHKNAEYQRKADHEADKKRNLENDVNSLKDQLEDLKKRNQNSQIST
- Protocol Description: ROCK inhibition assay, LANCE Ultra TR-FRET kinase assay (ROCK2)
- Condition Notes: 4 μM ATP, 50 nM ULight-CREBtide substrate
Recorded Metric: IC50

Examples with their reported IC50 follow.
> print(dat)
                                     smiles  recorded.metric  observed.result
1  O=C(Nc1cccc(Cn2ccc3cc(-c4c[nH]nc4C(F)(F)F)ccc3c2=O)c1)C1CCOCC1             IC50     10 to 100 nM
2  [2H]C([2H])([2H])NC(=O)c1cc(F)cc(Cn2cnc3cc(-c4cn[nH]c4C(F)(F)F)ccc3c2=O)c1             IC50          < 10 nM
3  CC(C)N1CCC(CNC(=O)c2cccc(Cn3ccc4cc(N5CCOCC5)ccc4c3=O)c2)CC1             IC50     10 to 100 nM

Suppose we examine the compound `Cn1nccc1-c1ccc2c(=O)n(Cc3cccc(C(=O)Nc4ccc5c(c4)CN(C4CC4)CC5)c3)ccc2c1` ; what IC50 value has been reported?
< 10 nM

----------
Entries annotated with measured pIC50
- System Name: Recombinant ROCK1 (amino acids 1-477) (Homo sapiens, UniProt Q13464)
- Construct: Recombinant ROCK1 (amino acids 1-477); by word order, ROCK1 from Carna Biosciences
- Sequence (Q13464 1-477): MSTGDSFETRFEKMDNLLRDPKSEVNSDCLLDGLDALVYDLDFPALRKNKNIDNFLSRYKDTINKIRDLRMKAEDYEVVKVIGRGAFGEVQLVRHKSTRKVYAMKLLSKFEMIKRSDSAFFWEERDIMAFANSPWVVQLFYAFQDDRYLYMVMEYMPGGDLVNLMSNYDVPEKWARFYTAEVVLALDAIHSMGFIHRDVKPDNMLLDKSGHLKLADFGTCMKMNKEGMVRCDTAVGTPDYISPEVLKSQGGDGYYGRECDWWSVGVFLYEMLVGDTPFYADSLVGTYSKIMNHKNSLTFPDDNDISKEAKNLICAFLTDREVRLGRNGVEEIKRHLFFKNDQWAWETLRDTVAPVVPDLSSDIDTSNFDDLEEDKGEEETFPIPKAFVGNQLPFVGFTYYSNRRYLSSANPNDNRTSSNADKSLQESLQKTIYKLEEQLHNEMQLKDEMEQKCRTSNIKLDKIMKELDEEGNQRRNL
- Protocol Description: ROCK inhibition assay, LANCE Ultra TR-FRET kinase assay (ROCK1)
- Condition Notes: 1 μM ATP, 50 nM ULight-CREBtide substrate
pIC50: −log10 of the molar value.

Examples with their reported pIC50 follow.
> print(dat)
                                   compound  recorded.metric  observed.result
1  Cc1nocc1-c1ccc2c(=O)n(Cc3cc(F)cc(C(=O)NCc4ccc(F)nc4)c3)ccc2c1 [Compound 147]            pIC50     7.00 to 7.96
2  C[C@H](c1cccc(C(=O)NC2CCN(C)CC2)c1)n1cnc2cc(-c3cn[nH]c3C(F)(F)F)ccc2c1=O [Compound 450]            pIC50           > 8.00
3  O=C(NC1COC1)c1cc(F)cc(Cn2ccc3cc(N4CCOCC4)ccc3c2=O)c1 [Compound 208]            pIC50           < 6.30
4  [2H]C([2H])([2H])NC(=O)c1cccc(Cn2cnc3cc(-c4cn[nH]c4C(F)F)ccc3c2=O)c1 [Compound 392]            pIC50     7.00 to 7.96
5  Cn1nccc1-c1ccc2c(=O)n(Cc3cccc(O)c3)ccc2c1 [Compound 12]            pIC50     7.00 to 7.96

Suppose we examine the compound NCC(c1cccc(C(N)=O)c1)n1cnc2cc(-c3cn[nH]c3C(F)(F)F)ccc2c1=O (stereo not shown) [Compound 507] ; what pIC50 value has been reported?
< 6.30

Suppose we examine the compound O=C(N[C@H]1C[C@@H](O)C1)c1cc(F)cc(Cn2ccc3cc(N4CCOCC4)ccc3c2=O)c1 [Compound 209] ; what pIC50 value has been reported?
< 6.30

Suppose we examine the compound CNC(=O)c1cc(Cl)cc(Cn2ccc3cc(-c4conc4C)ccc3c2=O)c1 [Compound 319] ; what pIC50 value has been reported?
6.30 to 7.00

Suppose we examine the compound [2H]C([2H])([2H])NC(=O)c1cccc([C@@H](C)n2cnc3cc(-c4ccnn4C)ccc3c2=O)c1 [Compound 477] ; what pIC50 value has been reported?
7.00 to 7.96

Suppose we examine the compound O=C(NCC1CCNCC1)c1cccc(Cn2ccc3cc(-c4c[nH]nc4C(F)F)ccc3c2=O)c1 [Compound 57] ; what pIC50 value has been reported?
> 8.00

Suppose we examine the compound COc1cc(F)cc(Cn2ccc3cc(-c4c[nH]nc4Cl)ccc3c2=O)c1 [Compound 17] ; what pIC50 value has been reported?
7.00 to 7.96

Suppose we examine the compound COc1cccc(Cn2cnc3cc(-c4ccncc4)ccc3c2=O)c1 [Compound 363] ; what pIC50 value has been reported?
7.00 to 7.96

Suppose we examine the compound O=c1c2ccc(-c3ccncc3)cc2ccn1Cc1cccc(O)c1 [Compound 23] ; what pIC50 value has been reported?
< 6.30

Suppose we examine the compound COc1cccc(C(CN)n2cnc3cc(-c4cn[nH]c4C(F)(F)F)ccc3c2=O)c1 (stereo not shown) [Compound 499] ; what pIC50 value has been reported?
> 8.00

Suppose we examine the compound Cc1nocc1-c1ccc2c(=O)n(Cc3cc(F)cc(C(=O)N[C@H]4C[C@@H](O)C4)c3)ccc2c1 [Compound 137] ; what pIC50 value has been reported?
6.30 to 7.00

Suppose we examine the compound CN1CCC(CNC(=O)c2cc(F)cc(Cn3ccc4cc(-c5c[nH]nc5C(F)(F)F)ccc4c3=O)c2)CC1 [Compound 134] ; what pIC50 value has been reported?
7.00 to 7.96
